All values here come from patent US20260248972A1.

experiment: in vivo; conditions: BALB/c nude, mouse, in vivo, iv, total radioactivity, T/P Tumor/Pancreas ratio
Metric Name: tissue to tissue ratio at 24 h
// response body must contain only the number

[in] What value of tissue to tissue ratio at 24 h has been recorded for this entry: C[C@@H](O)[C@H](NC(=O)[C@@H]1CSSC[C@H](NC(=O)[C@@H](Cc2ccccc2)NC(=O)[C@H](CCCCNC(=O)COCCOCCNC(=O)COCCOCCNC(=O)c2cccc(NC(=O)N[C@@H]3CN(C4CCCCC4)c4ccccc4N(CC(=O)C(C)(C)C)C3=O)c2)NC(=O)CN2CCN(CC(=O)O)CCN(CC(=O)O)CCN(CC(=O)O)CC2)C(=O)N[C@@H](Cc2ccc(O)cc2)C(=O)N[C@H](Cc2c[nH]c3ccccc23)C(=O)N[C@@H](CCCCN)C(=O)N[C@@H]([C@@H](C)O)C(=O)N1)C(=O)O [Compound I-42, DOTA-K(-OEG-OEG-Z360)-f]CYwKTC]T-OH]
[out] 12

----------
experiment: in vivo; details: BALB/c nude, mouse, in vivo, iv, total radioactivity, % ID/g Adrenal gland
Metric Name: tissue uptake at 72 h (%ID/g)
Write the answer as a number in %ID/g, unit excluded.

# Compound, Uom, tissue uptake at 72 h
data = [
    ("C[C@@H](O)[C@H](NC(=O)[C@@H]1CSSC[C@H](NC(=O)[C@@H](Cc2ccccc2)NC(=O)COCCOCCNC(=O)[C@H](CCCCNC(=O)c2cccc(NC(=O)N[C@@H]3CN(C4CCCCC4)c4ccccc4N(CC(=O)C(C)(C)C)C3=O)c2)NC(=O)CN2CCN(CC(=O)O)CCN(CC(=O)O)CCN(CC(=O)O)CC2)C(=O)N[C@@H](Cc2ccc(O)cc2)C(=O)N[C@H](Cc2c[nH]c3ccccc23)C(=O)N[C@@H](CCCCN)C(=O)N[C@@H]([C@@H](C)O)C(=O)N1)C(=O)O [Compound 177Lu-I-37, metal not drawn]", "%ID/g", 0.22),
]

Now turn to the next compound.
[in] What value of tissue uptake at 72 h has been recorded for this entry: C[C@@H](O)[C@H](NC(=O)[C@@H]1CSSC[C@H](NC(=O)[C@@H](Cc2ccccc2)NC(=O)[C@H](CCCCNC(=O)COCCOCCNC(=O)c2cccc(NC(=O)N[C@@H]3CN(C4CCCCC4)c4ccccc4N(CC(=O)C(C)(C)C)C3=O)c2)NC(=O)CN2CCN(CC(=O)O)CCN(CC(=O)O)CCN(CC(=O)O)CC2)C(=O)N[C@@H](Cc2ccc(O)cc2)C(=O)N[C@H](Cc2c[nH]c3ccccc23)C(=O)N[C@@H](CCCCN)C(=O)N[C@@H]([C@@H](C)O)C(=O)N1)C(=O)O [^177Lu-I-36, metal not drawn]
[out] 0.87

----------
test: in vivo; settings: BALB/c nude, mouse, in vivo, iv, total radioactivity, % ID/g Stomach
Recorded tissue uptake at 72 h for the following compounds
Write the answer as a number in %ID/g, unit excluded.

The following compounds have reported results that may help.
# Compound, Uom, tissue uptake at 72 h
rows = [
    ("C[C@@H](O)[C@H](NC(=O)[C@@H]1CSSC[C@H](NC(=O)[C@@H](Cc2ccccc2)NC(=O)CN2CCN(CC(=O)O)CCN(CC(=O)O)CCN(CC(=O)O)CC2)C(=O)N[C@@H](Cc2ccc(O)cc2)C(=O)N[C@H](Cc2c[nH]c3ccccc23)C(=O)N[C@@H](CCCCN)C(=O)N[C@@H]([C@@H](C)O)C(=O)N1)C(=O)O [^177Lu-C-1, metal not drawn, reference compound]", "%ID/g", 0.21),
    ("C[C@@H](O)[C@H](NC(=O)[C@@H]1CSSC[C@H](NC(=O)[C@@H](Cc2ccccc2)NC(=O)[C@H](CCCCNC(=O)c2cccc(NC(=O)N[C@@H]3CN(C4CCCCC4)c4ccccc4N(CC(=O)C(C)(C)C)C3=O)c2)NC(=O)COCCOCCNC(=O)CN2CCN(CC(=O)O)CCN(CC(=O)O)CCN(CC(=O)O)CC2)C(=O)N[C@@H](Cc2ccc(O)cc2)C(=O)N[C@H](Cc2c[nH]c3ccccc23)C(=O)N[C@@H](CCCCN)C(=O)N[C@@H]([C@@H](C)O)C(=O)N1)C(=O)O [^177Lu-I-35, metal not drawn]", "%ID/g", 2.29),
    ("C[C@@H](O)[C@H](NC(=O)[C@@H]1CSSC[C@H](NC(=O)[C@@H](Cc2ccccc2)NC(=O)[C@H](CCCCNC(=O)COCCOCCNC(=O)c2cccc(NC(=O)N[C@@H]3CN(C4CCCCC4)c4ccccc4N(CC(=O)C(C)(C)C)C3=O)c2)NC(=O)CN2CCN(CC(=O)O)CCN(CC(=O)O)CCN(CC(=O)O)CC2)C(=O)N[C@@H](Cc2ccc(O)cc2)C(=O)N[C@H](Cc2c[nH]c3ccccc23)C(=O)N[C@@H](CCCCN)C(=O)N[C@@H]([C@@H](C)O)C(=O)N1)C(=O)O [^177Lu-I-36, metal not drawn]", "%ID/g", 3.8),
    ("C[C@@H](O)[C@H](NC(=O)[C@@H]1CSSC[C@H](NC(=O)[C@@H](Cc2ccccc2)NC(=O)COCCOCCNC(=O)[C@H](CCCCNC(=O)c2cccc(NC(=O)N[C@@H]3CN(C4CCCCC4)c4ccccc4N(CC(=O)C(C)(C)C)C3=O)c2)NC(=O)CN2CCN(CC(=O)O)CCN(CC(=O)O)CCN(CC(=O)O)CC2)C(=O)N[C@@H](Cc2ccc(O)cc2)C(=O)N[C@H](Cc2c[nH]c3ccccc23)C(=O)N[C@@H](CCCCN)C(=O)N[C@@H]([C@@H](C)O)C(=O)N1)C(=O)O [Compound 177Lu-I-37, metal not drawn]", "%ID/g", 2.13),
]

Now turn to the next compound.
[in] What value of tissue uptake at 72 h has been recorded for this entry: C[C@@H](O)[C@H](NC(=O)[C@@H]1CSSC[C@H](NC(=O)[C@@H](Cc2ccccc2)NC(=O)COCCOCCNC(=O)COCCOCCNC(=O)[C@H](CCCCNC(=O)c2cccc(NC(=O)N[C@@H]3CN(C4CCCCC4)c4ccccc4N(CC(=O)C(C)(C)C)C3=O)c2)NC(=O)CN2CCN(CC(=O)O)CCN(CC(=O)O)CCN(CC(=O)O)CC2)C(=O)N[C@@H](Cc2ccc(O)cc2)C(=O)N[C@H](Cc2c[nH]c3ccccc23)C(=O)N[C@@H](CCCCN)C(=O)N[C@@H]([C@@H](C)O)C(=O)N1)C(=O)O [Compound 177Lu-I-39, metal not drawn]
[out] 1.26

----------
experiment: in vivo; conditions: BALB/c nude, mouse, in vivo, iv, total radioactivity, % ID/g Adrenal gland
Metric Name: tissue uptake at 24 h (%ID/g)
Write the answer as a number in %ID/g, unit excluded.

The following molecules have reported results that may help.
# Molecule, Uom, tissue uptake at 24 h
rows = [
    ("C[C@@H](O)[C@H](NC(=O)[C@@H]1CSSC[C@H](NC(=O)[C@@H](Cc2ccccc2)NC(=O)COCCOCCNC(=O)COCCOCCNC(=O)[C@H](CCCCNC(=O)c2cccc(NC(=O)N[C@@H]3CN(C4CCCCC4)c4ccccc4N(CC(=O)C(C)(C)C)C3=O)c2)NC(=O)CN2CCN(CC(=O)O)CCN(CC(=O)O)CCN(CC(=O)O)CC2)C(=O)N[C@@H](Cc2ccc(O)cc2)C(=O)N[C@H](Cc2c[nH]c3ccccc23)C(=O)N[C@@H](CCCCN)C(=O)N[C@@H]([C@@H](C)O)C(=O)N1)C(=O)O [Compound 177Lu-I-39, metal not drawn]", "%ID/g", 1.06),
    ("C[C@@H](O)[C@H](NC(=O)[C@@H]1CSSC[C@H](NC(=O)[C@@H](Cc2ccccc2)NC(=O)COCCOCCNC(=O)[C@H](CCCCNC(=O)c2cccc(NC(=O)N[C@@H]3CN(C4CCCCC4)c4ccccc4N(CC(=O)C(C)(C)C)C3=O)c2)NC(=O)CN2CCN(CC(=O)O)CCN(CC(=O)O)CCN(CC(=O)O)CC2)C(=O)N[C@@H](Cc2ccc(O)cc2)C(=O)N[C@H](Cc2c[nH]c3ccccc23)C(=O)N[C@@H](CCCCN)C(=O)N[C@@H]([C@@H](C)O)C(=O)N1)C(=O)O [Compound 177Lu-I-37, metal not drawn]", "%ID/g", 1.43),
    ("C[C@@H](O)[C@H](NC(=O)[C@@H]1CSSC[C@H](NC(=O)[C@@H](Cc2ccccc2)NC(=O)[C@H](CCCCNC(=O)c2cccc(NC(=O)N[C@@H]3CN(C4CCCCC4)c4ccccc4N(CC(=O)C(C)(C)C)C3=O)c2)NC(=O)COCCOCCNC(=O)CN2CCN(CC(=O)O)CCN(CC(=O)O)CCN(CC(=O)O)CC2)C(=O)N[C@@H](Cc2ccc(O)cc2)C(=O)N[C@H](Cc2c[nH]c3ccccc23)C(=O)N[C@@H](CCCCN)C(=O)N[C@@H]([C@@H](C)O)C(=O)N1)C(=O)O [^177Lu-I-35, metal not drawn]", "%ID/g", 2.3),
    ("C[C@@H](O)[C@H](NC(=O)[C@@H]1CSSC[C@H](NC(=O)[C@@H](Cc2ccccc2)NC(=O)[C@H](CCCCNC(=O)COCCOCCNC(=O)c2cccc(NC(=O)N[C@@H]3CN(C4CCCCC4)c4ccccc4N(CC(=O)C(C)(C)C)C3=O)c2)NC(=O)CN2CCN(CC(=O)O)CCN(CC(=O)O)CCN(CC(=O)O)CC2)C(=O)N[C@@H](Cc2ccc(O)cc2)C(=O)N[C@H](Cc2c[nH]c3ccccc23)C(=O)N[C@@H](CCCCN)C(=O)N[C@@H]([C@@H](C)O)C(=O)N1)C(=O)O [^177Lu-I-36, metal not drawn]", "%ID/g", 1.67),
]

Now turn to the next molecule.
[in] What value of tissue uptake at 24 h has been recorded for this entry: C[C@@H](O)[C@H](NC(=O)[C@@H]1CSSC[C@H](NC(=O)[C@@H](Cc2ccccc2)NC(=O)CN2CCN(CC(=O)O)CCN(CC(=O)O)CCN(CC(=O)O)CC2)C(=O)N[C@@H](Cc2ccc(O)cc2)C(=O)N[C@H](Cc2c[nH]c3ccccc23)C(=O)N[C@@H](CCCCN)C(=O)N[C@@H]([C@@H](C)O)C(=O)N1)C(=O)O [^177Lu-C-1, metal not drawn, reference compound]
[out] 0.15
